Biological target: AURKA (Homo sapiens, UniProt O14965)
Sequence (O14965 whole entry): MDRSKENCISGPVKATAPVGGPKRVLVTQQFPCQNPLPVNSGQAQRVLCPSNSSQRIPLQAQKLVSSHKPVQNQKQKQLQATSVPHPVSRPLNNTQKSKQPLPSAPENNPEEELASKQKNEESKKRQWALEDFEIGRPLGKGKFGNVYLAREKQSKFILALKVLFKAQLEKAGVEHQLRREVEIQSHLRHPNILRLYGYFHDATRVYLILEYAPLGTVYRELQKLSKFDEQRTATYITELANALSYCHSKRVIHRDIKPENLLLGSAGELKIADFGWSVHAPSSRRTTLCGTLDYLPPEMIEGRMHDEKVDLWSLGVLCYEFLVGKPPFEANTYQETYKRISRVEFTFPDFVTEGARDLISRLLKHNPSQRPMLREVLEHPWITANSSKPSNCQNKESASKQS
Assay: AURKA degradation, Simple Western;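 also: measured in NGP neuroblastoma cells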
Format: cell-based
Parameters: Representative Western blot showing levels of endogenous proteins MDR1, MYCN, AURKA, and CRBN in untreated cell lines; endogenous in cells; host or cells: NGP, IMR-32, SJNB-8, SK-N-BE(2)-C, SK-N-SH, SK-N-AS, SJNB-1, RPE, HEK293T
Conditions: 24h, 1000nM
Field 'label' (enum: rule met / rule not met). Set to rule met when AURKA Degradation 24h @1000nM is strictly under 80; else rule not met.

Would you please look over these solved cases?
# molecule, category label
records = [
    ("Cc1cc(Nc2ccc(F)c(CC3(C(=O)N4CCC(CN5CCN(c6ccc(N7CCC(=O)NC7=O)cn6)CC5)CC4)CCN(Cc4cccc(Cl)c4F)CC3)n2)n[nH]1", "rule not met"),
    ("O=C1CCC(Nc2ccc(N3CCN(C4CN(C(=O)[C@]5(Cc6cccc(Nc7nccs7)n6)CC[C@@H](Oc6cccc(Cl)c6F)CC5)C4)CC3)c(F)c2)C(=O)N1 (some centres unmarked)", "rule not met"),
]

Problem: Lab note: confirm whether the reported AURKA Degradation 24h @1000nM for this molecule is below 80, equality not counting. molecule: "O=C1CCN(c2ccc(N3CCN(CC4CCN(C(=O)[C@]5(Cc6cccc(Nc7nccs7)n6)CC[C@@H](Oc6cccc(Cl)c6F)CC5)CC4)CC3)nc2)C(=O)N1"
Solution: rule not met

Problem: Entry to check: O=C1CCC(N2C(=O)c3ccc(N4CCN(CCOCCOCCNC(=O)[C@]5(Cc6cccc(Nc7nccs7)n6)CC[C@@H](Oc6cccc(Cl)c6F)CC5)CC4)cc3C2=O)C(=O)N1 (some centres unmarked)
Solution: rule met

Problem: Entry to check: "Cc1cc(Nc2ccc(F)c(CC3(C(=O)N4CCC(F)(C(=O)N5CCN(c6ccc(N7CCC(=O)NC7=O)cn6)CC5)CC4)CCN(Cc4cccc(Cl)c4F)CC3)n2)n[nH]1"
Solution: rule not met

Problem: Entry to check: O=C1CCC(Nc2ccc(N3CCN(C(=O)[C@]4(Cc5cccc(Nc6nccs6)n5)CC[C@@H](Oc5cccc(Cl)c5F)CC4)CC3)cc2)C(=O)N1 (some centres unmarked)
Solution: rule met

Problem: Entry to check: O=C1CCC(N2C(=O)c3ccc(OCCOCCNC(=O)[C@]4(Cc5cccc(Nc6nccs6)n5)CC[C@@H](Oc5cccc(Cl)c5F)CC4)cc3C2=O)C(=O)N1 (some centres unmarked) [SK3277, reference compound]
Solution: rule met

Problem: Entry to check: "O=C1CCN(Cc2ccc(C3CCN(C4CN(C(=O)[C@]5(Cc6cccc(Nc7nccs7)n6)CC[C@@H](Oc6cccc(Cl)c6F)CC5)C4)CC3)nc2)C(=O)N1"
Solution: rule not met

Problem: Entry to check: O=C1CCC(Nc2ccc(N3CCN(CCNC(=O)[C@]4(Cc5cccc(Nc6nccs6)n5)CC[C@@H](Oc5cccc(Cl)c5F)CC4)CC3)cc2)C(=O)N1 (some centres unmarked)
Solution: rule not met
